Answer each item with its documented Kd.
systemUnderTest: HIV-1_(YU-2) gp140 trimer (HIV-1 YU-2)
method: BLI; equilibrium
Give bare numbers, in nM.

// below: answered binders
{"binder": "IgG1 b12 EG Fc variant (antibody, V domains shown) VH: QVQLVQSGAEVKKPGASVKVSCQASGYRFSNFVIHWVRQAPGQRFEWMGWINPYNGNKEFSAKFQDRVTFTADTSANTAYMELRSLRSADTAVYYCARVGPYSWDDSPQDNYYMDVWGKGTTVIVSS VL: EIVLTQSPGTLSLSPGERATFSCRSSHSIRSRRVAWYQHKPGQAPRLVIHGVSNRASGISDRFSGSGSGTDFTLTITRVEPEDFALYYCQVYGASSYTFGQGTKLERK", "Kd / nM": 0.9}
{"binder": "IgG1 b12 LALA Fc variant (antibody, V domains shown) VH: QVQLVQSGAEVKKPGASVKVSCQASGYRFSNFVIHWVRQAPGQRFEWMGWINPYNGNKEFSAKFQDRVTFTADTSANTAYMELRSLRSADTAVYYCARVGPYSWDDSPQDNYYMDVWGKGTTVIVSS VL: EIVLTQSPGTLSLSPGERATFSCRSSHSIRSRRVAWYQHKPGQAPRLVIHGVSNRASGISDRFSGSGSGTDFTLTITRVEPEDFALYYCQVYGASSYTFGQGTKLERK", "Kd / nM": 2.04}
{"binder": "IgG1 b12 EFTAE Fc variant (antibody, V domains shown) VH: QVQLVQSGAEVKKPGASVKVSCQASGYRFSNFVIHWVRQAPGQRFEWMGWINPYNGNKEFSAKFQDRVTFTADTSANTAYMELRSLRSADTAVYYCARVGPYSWDDSPQDNYYMDVWGKGTTVIVSS VL: EIVLTQSPGTLSLSPGERATFSCRSSHSIRSRRVAWYQHKPGQAPRLVIHGVSNRASGISDRFSGSGSGTDFTLTITRVEPEDFALYYCQVYGASSYTFGQGTKLERK", "Kd / nM": 1.93}

Items follow; give Kd for each.
1. IgG1 b12 (unmodified Fc) (antibody, V domains shown) VH: QVQLVQSGAEVKKPGASVKVSCQASGYRFSNFVIHWVRQAPGQRFEWMGWINPYNGNKEFSAKFQDRVTFTADTSANTAYMELRSLRSADTAVYYCARVGPYSWDDSPQDNYYMDVWGKGTTVIVSS VL: EIVLTQSPGTLSLSPGERATFSCRSSHSIRSRRVAWYQHKPGQAPRLVIHGVSNRASGISDRFSGSGSGTDFTLTITRVEPEDFALYYCQVYGASSYTFGQGTKLERK
2. IgG1 b12 KA Fc variant (antibody, V domains shown) VH: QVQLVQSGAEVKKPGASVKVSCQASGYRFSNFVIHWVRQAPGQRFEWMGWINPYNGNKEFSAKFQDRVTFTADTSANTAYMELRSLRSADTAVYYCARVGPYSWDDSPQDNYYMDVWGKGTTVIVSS VL: EIVLTQSPGTLSLSPGERATFSCRSSHSIRSRRVAWYQHKPGQAPRLVIHGVSNRASGISDRFSGSGSGTDFTLTITRVEPEDFALYYCQVYGASSYTFGQGTKLERK

1: 2.18; 2: 2.95
